# system_tested: human collagen type I (acid soluble, extracted from placenta, Sigma C7774) (human) (UniProt P02452)
# Sequence (P02452 162-1218 limits assumed, chain 1 of 2): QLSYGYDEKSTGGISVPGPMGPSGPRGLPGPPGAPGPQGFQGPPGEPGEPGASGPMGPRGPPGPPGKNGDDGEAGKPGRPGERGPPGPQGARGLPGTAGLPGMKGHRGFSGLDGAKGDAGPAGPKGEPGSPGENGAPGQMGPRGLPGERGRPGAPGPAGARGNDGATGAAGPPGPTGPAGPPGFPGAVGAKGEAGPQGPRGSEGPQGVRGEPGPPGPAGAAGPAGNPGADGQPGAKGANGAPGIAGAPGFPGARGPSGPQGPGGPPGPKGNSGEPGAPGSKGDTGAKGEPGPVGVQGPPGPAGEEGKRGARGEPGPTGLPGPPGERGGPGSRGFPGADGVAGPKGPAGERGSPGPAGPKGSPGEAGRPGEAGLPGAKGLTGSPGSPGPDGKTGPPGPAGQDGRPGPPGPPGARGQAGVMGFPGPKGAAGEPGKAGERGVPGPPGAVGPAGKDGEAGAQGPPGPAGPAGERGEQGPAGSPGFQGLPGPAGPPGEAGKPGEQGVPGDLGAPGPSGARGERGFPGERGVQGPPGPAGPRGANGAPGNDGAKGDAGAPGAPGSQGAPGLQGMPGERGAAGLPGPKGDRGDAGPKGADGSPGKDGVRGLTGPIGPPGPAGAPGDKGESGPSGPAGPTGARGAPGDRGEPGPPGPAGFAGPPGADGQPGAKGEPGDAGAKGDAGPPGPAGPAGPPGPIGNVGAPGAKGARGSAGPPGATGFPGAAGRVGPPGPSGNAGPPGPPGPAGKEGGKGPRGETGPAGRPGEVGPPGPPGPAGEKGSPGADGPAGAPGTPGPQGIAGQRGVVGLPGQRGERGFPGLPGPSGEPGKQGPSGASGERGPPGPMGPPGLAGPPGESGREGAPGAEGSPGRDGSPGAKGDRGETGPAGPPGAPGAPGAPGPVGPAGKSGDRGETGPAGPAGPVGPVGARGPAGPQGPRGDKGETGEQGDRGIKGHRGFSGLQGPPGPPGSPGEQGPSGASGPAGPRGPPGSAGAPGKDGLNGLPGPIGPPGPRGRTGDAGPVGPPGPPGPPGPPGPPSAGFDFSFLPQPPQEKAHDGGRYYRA
# Sequence (P08123 80-1119 limits assumed, chain 2 of 2, further chain): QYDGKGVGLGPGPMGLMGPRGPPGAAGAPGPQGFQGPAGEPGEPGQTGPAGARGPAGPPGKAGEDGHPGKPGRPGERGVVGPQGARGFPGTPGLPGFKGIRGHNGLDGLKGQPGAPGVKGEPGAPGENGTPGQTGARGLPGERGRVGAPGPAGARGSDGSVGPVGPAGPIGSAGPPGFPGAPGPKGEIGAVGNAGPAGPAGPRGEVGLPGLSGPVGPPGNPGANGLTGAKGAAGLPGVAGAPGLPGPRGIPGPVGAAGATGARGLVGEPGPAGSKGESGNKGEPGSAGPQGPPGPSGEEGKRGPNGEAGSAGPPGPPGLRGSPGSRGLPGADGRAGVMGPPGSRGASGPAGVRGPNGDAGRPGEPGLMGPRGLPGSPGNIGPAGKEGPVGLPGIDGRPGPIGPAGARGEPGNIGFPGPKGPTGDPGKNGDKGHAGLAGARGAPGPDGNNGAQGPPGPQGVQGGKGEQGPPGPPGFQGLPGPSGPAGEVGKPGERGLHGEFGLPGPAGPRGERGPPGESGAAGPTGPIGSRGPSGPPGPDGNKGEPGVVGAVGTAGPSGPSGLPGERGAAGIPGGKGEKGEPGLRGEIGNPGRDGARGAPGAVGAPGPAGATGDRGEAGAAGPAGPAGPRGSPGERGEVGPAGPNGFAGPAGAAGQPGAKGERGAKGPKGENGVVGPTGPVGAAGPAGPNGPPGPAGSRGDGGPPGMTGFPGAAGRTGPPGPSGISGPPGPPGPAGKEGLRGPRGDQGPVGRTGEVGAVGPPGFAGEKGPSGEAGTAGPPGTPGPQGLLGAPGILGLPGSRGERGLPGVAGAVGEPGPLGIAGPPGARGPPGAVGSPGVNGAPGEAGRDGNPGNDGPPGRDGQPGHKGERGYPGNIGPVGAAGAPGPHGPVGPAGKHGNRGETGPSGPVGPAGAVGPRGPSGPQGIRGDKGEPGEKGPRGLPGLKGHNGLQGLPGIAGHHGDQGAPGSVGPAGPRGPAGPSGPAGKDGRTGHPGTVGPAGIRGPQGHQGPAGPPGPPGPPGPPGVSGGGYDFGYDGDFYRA
# experimental_protocol: dried collagen assay
Bridge positions count the residues as written; N and C are the ends. Ends that are not written are not given here.
Classification scheme (% bound): zone 1 (below 7%), zone 2 (7% to below 10%), zone 3 (10% or more)

Record excerpt, results attached:
>  <binder>
GWQCQGTDSLDWKCLYM (disulfide 4-14 (inferred)) [SEQ ID NO: 77]

>  <qualitative_label>
zone 3

$$$$
>  <binder>
PWWCHEMPSMCFGF (disulfide 4-11 (inferred)) [SEQ ID NO: 3]

>  <qualitative_label>
zone 1

$$$$
>  <binder>
GQWHCTTDFPHXYCLYG (not fully specified; Gd^T-GQWHCTTDFPH-Dpr-YCLYG) [Comp ID 886]

>  <qualitative_label>
zone 2

$$$$

Pick a category. Item: GQWHCTTRFPHHFCLYG (not fully specified; Gd^T-GQWHCTTRFPHHfCLYG) [Comp ID 901]
zone 1

Entry PWTCSGDEYAWHCNYE (Gd^G-PWTCSGDEYAWHCNYe) [Comp ID 824] belongs to which category?
zone 3
